assay: yeast display, Sf9 membrane polyspecificity reagent, FACS + sequencing; frameworks hold sequencing errors

>  <Sequence Code>
QVQLVESGGGLVQAGGSLRLSCAASGRTFFVYAMGWYRQAPVKERELVAAISNTGGRTYYADSVKGRFTISRDNAKNTVYLQMNSLKPEDTAVYYCAAPYSGPYRSYEYYWGQGTQVTVSS

>  <polyreactivity (PSR sort gate)>
low polyreactivity

$$$$
>  <Sequence Code>
QVQLVESGGGLVQAGGSLRLSCAASGRIFYVYAMGWYRQAPGKERELVAAISWSGGGTYYADSVKGRFTISRDNAKNTVYLQMNSLKPEDTAVYYCATVSGVPPGSHDYWGQGTQVTVSS

>  <polyreactivity (PSR sort gate)>
low polyreactivity

$$$$
>  <Sequence Code>
QVQLVESGGGLVQAGGSLRLSCAASGFTFSNYAMGWYRQAPGKERELVAAISKRGGSTYYADSVKGRFTISRDNAKNTVYLQRNSLKPEDTAVYYCAAYGGYIRRSVPVWGYYYWGQGTQVTVSS

>  <polyreactivity (PSR sort gate)>
high polyreactivity

$$$$
>  <Sequence Code>
QVQLVESGGGLVQAGGSLRLSCAASGSTINQYPMGWYRQAPGKERDLVAAITRRGGSTYYADSVKGRCTISSDNAKNTVYLQLNSLKPEDTAVYYCAAAYPYTTVSYDYWGQGTQVTVSS

>  <polyreactivity (PSR sort gate)>
high polyreactivity

$$$$
>  <Sequence Code>
QVQLVESGGGLVQAGGSLRLSCAASGITFWYYAMGWYRQAPGKERELVAAITRSGRTNYADSVKGRFTISRDNAKNTVYLQMNSLKPEDTAVYYCAVYLYSFSPRYYYWGQGTQVTVSS

>  <polyreactivity (PSR sort gate)>
low polyreactivity

$$$$
>  <Sequence Code>
QVQLVESGGGLVQAGGSLRLSCAASGIIFVYYVMGWYRQAPGKERELVASIDGSGGSTNYADSVKGRFTISRDNAKYTVYLQMNSLKPEDTAVYYCNADNILYWSTLDYWGQGTQVTVSS

>  <polyreactivity (PSR sort gate)>
low polyreactivity

$$$$
>  <Sequence Code>
QVQLVESGGGLVQAGGSLRLSCAASGSTFLFYDMGWYRHAAGKERELVAAIRWSGGSTYADSVKGRFTISRDNAKNTVYLQMNSLKPVDTAVYYCATTYRPTFRRHYNYWGQGTQVTVSS

>  <polyreactivity (PSR sort gate)>
low polyreactivity

$$$$
>  <Sequence Code>
QVQLEESGGGLVQAGGSHRLSCAASGQIFRHYAMGWYRQAPGKEREFVAAITGSGGNTYYADSLKGRFTISRDNAKNTVYLQMNSLKPEDTAVYYCAVRAYPSYPRGVYAYYYWGQGTQVTVSS

>  <polyreactivity (PSR sort gate)>
high polyreactivity

$$$$
>  <Sequence Code>
QVQLVESGGGLVQAGGSLRLSCAASGSIFTWYAMGWYRQAPGKERELVAAISEDGGSTYYADSVKGRFTISRDNAKNTVYLQMNSLKPEDTAVFYCATPVASVTGYDYWGQGTQVTVSS

>  <polyreactivity (PSR sort gate)>
low polyreactivity

$$$$
>  <Sequence Code>
QVQLVESGGGLVQAGGSLRLSCAASGRIIAYYAMGWYRQAPGKERELVAGINSGGGSTYYADSVKGRFTISRDNAKNTVYLQMNSLKPEDTAVYYCAARAGGVDGYDYWGQGTQVTVSS

>  <polyreactivity (PSR sort gate)>
high polyreactivity

$$$$
>  <Sequence Code>
QVQLVESGGGLVHAGGSLRLSCAASGRTFPTNAMGWYRQSPGKDRELVAAISWSGGGTYYADSVKGRFTISRDNAKNTIYLQMNSLKPEDTAVYYCAADDTPDTIYGSDYWGQGTQVTVSS

>  <polyreactivity (PSR sort gate)>
low polyreactivity

$$$$
>  <Sequence Code>
QVQLVESGGGLVQAGGSLRLSCAASGIIFRNYAMGWYRQAPGKERELVAAISRNGGSTYYADSVKGRFTISRDNAKNTVYLQMNSLKPEDTAVYYCAARASYPNWTYYYWGKGTQVTVSS

>  <polyreactivity (PSR sort gate)>
high polyreactivity

$$$$
>  <Sequence Code>
QVQLVESGGGLVKAGGSLRLSCAASGSIFLTYAMGWNRQAPGKERELVAAITQSGGSTYYADSVKGRFTISRDNAKNTVYLQMNSLKPEDTAVYYCAADVFGPQYWWYDYWGQGTQVTVSS

>  <polyreactivity (PSR sort gate)>
low polyreactivity

$$$$
>  <Sequence Code>
QVQLVESGGGLVQAGGSLRLSCAASGFTFSNYAMGWYRQAPGKERELVAAISRSGGSTYYADSVKGRFTISRDNAKNTVYLQMNSLKPEDTAVYYCNADRYRVWYRRYDYWGQGTQVTVSS

>  <polyreactivity (PSR sort gate)>
high polyreactivity

$$$$
>  <Sequence Code>
QVQLVESGGGLVQAGGSLRLSCAASGYTFGRYAMGWYSQAPGKERELVAAITKSGGRTSYADSVKGRFTISRDNEKNTVYLQMTSLKPEDTAVYYCNKVRFQPYWVVYATGDYWGQGTQVTVSS

>  <polyreactivity (PSR sort gate)>
high polyreactivity

$$$$
>  <Sequence Code>
QVQLVESGGGLVQAGGSLRISCAASGRIFAQYVMGWYRQAPGKERELVAAISSGGSTYYADSVKGRFTISRDNAKNTVYLQMNSLKPEDTAVYYCAARSRAHRVGRQPFDYWGQGTQVTVSS

>  <polyreactivity (PSR sort gate)>
high polyreactivity

$$$$
>  <Sequence Code>
QVQLVESGGGLVQAGGSLRLSWAASGSSFFRNAMGGYSQAPGKERELVASISRSGGSTYYADSVKGRFTISRDNAKNTVYLQMNSLKPEDTAVSYCAKKPNTQTSYWYYYWGQGTQVTVST

>  <polyreactivity (PSR sort gate)>
high polyreactivity

$$$$
>  <Sequence Code>
QVQLVESGGGLVQAGGSLRLSCAASGFTFTRNAMGWYRQAPGKERELVAAISSSGTSTYYADSVKGRFTISRDNAKNTVYLQMNSLKPEDTAVYYCAKDFYRRYYSWGLGTQVTVSS

>  <polyreactivity (PSR sort gate)>
high polyreactivity

$$$$
>  <Sequence Code>
QVQLVESGGGLVQAGVSLSLSCADSGSFSDFYAMGWYRQAPGKERELVAAITSSGGSTYYADSVKGRFTISREIAKNTGYLQMNSLKPEDTAVYYCNRYSNLGYNYWGQGTQVSVSS

>  <polyreactivity (PSR sort gate)>
high polyreactivity

$$$$
>  <Sequence Code>
QVQLVESGGGLVQAGGSLRLSCAASGSIFSSNTMGWYRQAPGKERELVAAITVSGGRTYYADSVKGRFTISRDNAKNTVYLQMNSLKPEDTAVYYCATRWFGNSYSYRAYDYWGQGTQVTVSS

>  <polyreactivity (PSR sort gate)>
high polyreactivity

$$$$
>  <Sequence Code>
QVQLVESGGGLVQAGGSLRLSCAASGLTFDKNVMGWYRQAHGKERELVAAISRSGGTTYYADSVKGRFTISRDNAKYTVYLQMNSLKPEDTAVYYCAKRAWTGYGYYYWGQGTQVTVSS

>  <polyreactivity (PSR sort gate)>
high polyreactivity

$$$$
